- assay_method_text: First-in-human clinical study: plasma and whole blood PK of INX-315 (oral QD, ASD tablet)
- Format: in vivo
- run_conditions: human, plasma, oral, 300 mg, plasma, 300 mg QD cohort, Day 1, median; read-out: Tmax, Median
quantity_measured: Tmax (h)
Could you give me the number in h? Just the number is fine.

For the molecule shown here, NS(=O)(=O)c1ccc(Nc2ncc3cc4n(c3n2)C2(CCCCC2)C(=O)NN4)cc1 [INX-315] , give the reported Tmax.
8

----------
- assay_method_text: First-in-human clinical study: plasma and whole blood PK of INX-315 (oral QD, ASD tablet)
- Format: in vivo
- run_conditions: human, plasma, oral, 200 mg, plasma, 200 mg QD, Day 15, Cohort 2; read-out: AUClast, geometric mean
quantity_measured: AUC(0-t) (ng·h/mL)
Could you give me the number in ng·h/mL? Just the number is fine.

For the molecule shown here, NS(=O)(=O)c1ccc(Nc2ncc3cc4n(c3n2)C2(CCCCC2)C(=O)NN4)cc1 [INX-315] , give the reported AUC(0-t).
12200

----------
- assay_method_text: Toxicity and toxicokinetics studies, rat
- Type: in vivo, Sprague Dawley rats
- run_conditions: both sexes, Sprague Dawley, rat, in vivo, po
- Protocol: Nominal dose values and sampling times were used for calculations. Any concentration reported as BLQ (LLOQ<1.0 ng/mL) was set equal to zero. Toxicokinetic analyses included Cmax, Tmax, AUC0-24, t1/2, RA Cmax, and RA AUC0-24. Following this, human dose exposure was simulated using a combined whole blood and plasma compartment PK model using allometry and whole blood parameter estimates for the absorption rate constants and bioavailability per animal species. […]
quantity_measured: bioavailability

For the compound shown here, `NS(=O)(=O)c1ccc(Nc2ncc3cc4n(c3n2)C2(CCCCC2)C(=O)NN4)cc1` , give the reported bioavailability.
8%

----------
- assay_method_text: First-in-human clinical study: plasma and whole blood PK of INX-315 (oral QD, ASD tablet)
- Format: in vivo
- run_conditions: human, plasma, oral, 100 mg, plasma, 100 mg QD, Day 15 observed, mean of first two patients; read-out: Cmin
- Experimental: All INX-315 tablets were taken at approximately the same time(s) each day. Samples will also be collected pre-dose on Cycle 1 Days 2, 8, 16, and Day 22, and pre-dose on Day 1 of each subsequent cycle. Standard non-compartmental PK parameters were estimated. […] PK parameters will be summarized descriptively by dosing cohort. […] Dose proportionality will be assessed for AUC and Cmax using a power model. […] Patients were upgraded to the 200 mg QD dose level and PK/PD plasma parameters were measured (FIG. 18A). […]
quantity_measured: concentration at 15 day (ng/mL)
Could you give me the number in ng/mL? Just the number is fine.

For the compound shown here, NS(=O)(=O)c1ccc(Nc2ncc3cc4n(c3n2)C2(CCCCC2)C(=O)NN4)cc1 [INX-315] , give the reported concentration at 15 day.
177

----------
- assay_method_text: First-in-human clinical study: plasma and whole blood PK of INX-315 (oral QD, ASD tablet)
- Format: in vivo
- run_conditions: human, plasma, oral, 100 mg, 100 mg QD (n = 6), 1.0 hr
- Method: All INX-315 tablets were taken at approximately the same time(s) each day. Samples will also be collected pre-dose on Cycle 1 Days 2, 8, 16, and Day 22, and pre-dose on Day 1 of each subsequent cycle. Standard non-compartmental PK parameters were estimated. […] PK parameters will be summarized descriptively by dosing cohort. […] Dose proportionality will be assessed for AUC and Cmax using a power model. […] Patients were upgraded to the 200 mg QD dose level and PK/PD plasma parameters were measured (FIG. 18A). […]
quantity_measured: concentration at 1 h
The answer should read as a number with its unit following.

For the compound shown here, `NS(=O)(=O)c1ccc(Nc2ncc3cc4n(c3n2)C2(CCCCC2)C(=O)NN4)cc1` , give the reported concentration at 1 h.
71.4 ng/mL
